Task for the reader: assign each of the following molecules its reported melting point.

Hello, I would appreciate it if you could give melting point for each entry below.
1. CCCCCCCCSC(=O)CS(=O)(=O)Nc1c(C(C)C)cccc1C(C)C
2. COc1ccc([C@H](O)[C@@H](Cc2ccc(C(F)(F)F)cc2)NC(=O)c2ccc(F)c3ccccc23)cc1 (racemic)
3. CC(C)CCC1(c2ccccc2)CC(O)=C(Sc2ccccc2C(=O)O)C(=O)O1 (centres undefined)
4. O=Cc1ccc(OCc2cn(C(c3ccccc3)(c3ccccc3)c3ccccc3)cn2)cc1
5. O=C(c1cc2c(Br)cccc2o1)c1cc2c(Br)cccc2o1
6. Cc1nc(-c2ccc(C#N)cc2)sc1C(=O)N1CC(O)O[C@@](Cn2cncn2)(c2ccc(F)cc2F)[C@H]1C (some centres undefined)

1. 51 to 52 °C
2. 184 to 185 °C
3. 99 to 101 °C
4. 181 to 182 °C
5. 223 to 225 °C
6. 225 to 228 °C
